# protocolSummary: method code SF, from DOI: 10.1034/j.1399-3011.2003.00037.x, PMID: 12492901
# conditionInfo: pH 2.0
measuredQuantity: logD

In [3]: df
Out[3]:
                                   molecule  obsvalue
0            CC(=O)N[C@@H](Cc1ccccc1)C(=O)O       0.4
1  CCCC(Nc1ccc([N+](=O)[O-])cc1[N+](=O)[O-])C(=O)O (racemic)      2.88
2  CCCC[C@H](Nc1ccc([N+](=O)[O-])cc1[N+](=O)[O-])C(=O)O      3.25
3  C[C@H](Nc1ccc([N+](=O)[O-])cc1[N+](=O)[O-])C(=O)O      2.09
